The following variants are listed with their measured self-cleavage values.
B1: Hairpin Ribozyme (parent)
chain: GUCCUCUUUCACGUGCGCGUGAAAGAGAGAAGUGAACCAGAGAAACACACGUUGUGGUAUAUUACCUGGUA

variants of: B1; test: self-cleavage, relative activity (ratio to wild type); higher = more cleavage; co-transcriptional

Below, each entry is followed by its recorded self-cleavage result.
- mutationAnnotation: "A23G G56U"
  observed: 0.162
- mutationAnnotation: "A22G U62A"
  observed: 0.189

Let us move to another entry and its self-cleavage.
**Query** // fetch self-cleavage given entry G40U G57C
**Result** 0.124
